- Tested on: HeLa
- test-protocol: Antiproliferative activity against human HeLa cells after 24 hrs by MTT assay
I'd appreciate it if you marked entries t when IC50 is lower than 200 µM and f when it is not.

Fc1cccc(Cc2nnc(Cn3nnc4ccccc43)o2)c1    f

# TODO verify IC50 < 200 µM strictly for this compound: COc1ccccc1-c1nnc(Cn2nnc3ccccc32)o1
f

----------
- Test system: HeLa
- test-protocol: Antiproliferative activity against human HeLa cells after 24 hrs by MTT assay
Recorded IC50 by entry
Answer with a number only, understood to be in µM.

The following molecules have reported results that may help.
Clc1cccc(Cc2nnc(Cn3nnc4ccccc43)o2)c1    230
COc1cccc(-c2nnc(Cn3nnc4ccccc43)o2)c1    243
Clc1cccc(-c2nnc(Cn3nnc4ccccc43)o2)c1    327
O=[N+]([O-])c1ccc(Cc2nnc(Cn3nnc4ccccc43)o2)cc1    157
c1ccc(Cc2nnc(Cn3nnc4ccccc43)o2)cc1    167

Quick check: IC50 of COc1cccc(Cc2nnc(Cn3nnc4ccccc43)o2)c1 ?
123

Quick check: IC50 of Fc1cccc(-c2nnc(Cn3nnc4ccccc43)o2)c1 ?
332

Quick check: IC50 of COc1ccc(Cc2nnc(Cn3nnc4ccccc43)o2)cc1 ?
150

Quick check: IC50 of Brc1ccc(Cc2nnc(Cn3nnc4ccccc43)o2)cc1 ?
198

Quick check: IC50 of COc1ccc(-c2nnc(Cn3nnc4ccccc43)o2)cc1 ?
269

Quick check: IC50 of Brc1cccc(Cc2nnc(Cn3nnc4ccccc43)o2)c1 ?
182

Quick check: IC50 of Brc1ccc(-c2nnc(Cn3nnc4ccccc43)o2)cc1 ?
305

Quick check: IC50 of O=[N+]([O-])c1ccc(-c2nnc(Cn3nnc4ccccc43)o2)cc1 ?
299

Quick check: IC50 of COc1ccccc1Cc1nnc(Cn2nnc3ccccc32)o1 ?
11

Quick check: IC50 of Brc1cccc(-c2nnc(Cn3nnc4ccccc43)o2)c1 ?
301
